assay: physchem; settings: pH 7.4, Solubility Conc.
Positions of bridges follow the written chain, without caps; N, C: chain ends. Non-standard residues stand in square brackets, D forms with d. Residues, ends and D or L forms follow the SMILES beside them. Groups on a side chain read outwards from the residue. *: point of attachment. Lys(CH2CO2H)2 = N[C@@H](CCCCN(CC(=O)O)CC(=O)O)C(=O)O; X1 = O=C(O)CCCCCCCCCCCCCCCCC(=O)NCCOCCOCCN*; C18 diacid = O=C(O)CCCCCCCCCCCCCCCCC(=O)*; C17 diacid = O=C(O)CCCCCCCCCCCCCCCC(=O)*; C16 diacid = O=C(O)CCCCCCCCCCCCCCC(=O)*; Orn = NCCC[C@H](N)C(=O)O; Dab = NCC[C@H](N)C(=O)O; AEEA = NCCOCCOCC(=O)O
Below, each entry is listed alongside its reported solubility.
Please respond with the number in µM and leave the unit unwritten.

CC(=O)N[C@H]1CCCNC(=O)C[C@@H](C(=O)N2CCC[C@H]2C(=O)N2CCC[C@H]2C(=O)N[C@@H](CCCNC(=N)N)C(=O)N[C@@H](CCC(=O)O)C(=O)N[C@@H](CCCCN(CC(=O)O)CC(=O)O)C(=O)N[C@@H](CO)C(=O)N[C@@H](CO)C(=O)NCCOCCOCCNC(=O)CCCCCCCCCCCCCCCCC(=O)O)NC(=O)[C@H](Cc2c[nH]c3ccccc23)NC(=O)[C@H](CCCNC(=N)N)NC(=O)[C@@H](Cc2ccccc2)NC(=O)[C@H](Cc2c[nH]cn2)NC1=O [Example 50] (Ac-[Orn]H[dF]RWDPPRE[Lys(CH2CO2H)2]SS-X1; lactam 1-6)    156
CC(=O)N[C@H]1CCC(=O)NCCC[C@@H](C(=O)N2CCC[C@H]2C(=O)N2CCC[C@H]2C(=O)N[C@@H](CCCNC(=N)N)C(=O)N[C@@H](CC(=O)O)C(=O)N[C@@H](CCCCN(CC(=O)O)CC(=O)O)C(=O)N[C@@H](CCCCNC(=O)COCCOCCNC(=O)CCCCCCCCCCCCCCC(=O)O)C(N)=O)NC(=O)[C@H](Cc2c[nH]c3ccccc23)NC(=O)[C@H](CCCNC(=N)N)NC(=O)[C@@H](Cc2ccccc2)NC(=O)[C@H](Cc2cnc[nH]2)NC1=O [Example 18] (Ac-EH[dF]RW[Orn]PPRD[Lys(CH2CO2H)2]K([AEEA-C16 diacid])-NH2; lactam 1-6)    449
CC(=O)N[C@H]1CCC(=O)NCCC[C@@H](C(=O)N2CCC[C@H]2C(=O)N2CCC[C@H]2C(=O)N[C@@H](CC(=O)O)C(=O)N[C@@H](CCCCN(CC(=O)O)CC(=O)O)C(=O)N[C@@H](CCCCNC(=O)COCCOCCNC(=O)CCCCCCCCCCCCCCCCC(=O)O)C(N)=O)NC(=O)[C@H](Cc2c[nH]c3ccccc23)NC(=O)[C@H](CCCNC(=N)N)NC(=O)[C@@H](Cc2ccccc2)NC(=O)[C@H](Cc2c[nH]cn2)NC1=O [Example 26] (Ac-EH[dF]RW[Orn]PPD[Lys(CH2CO2H)2]K([AEEA-C18 diacid])-NH2; lactam 1-6)    482

Please indicate solubility recorded for CC(=O)N[C@H]1CCNC(=O)C[C@@H](C(=O)N2CCC[C@H]2C(=O)N2CCC[C@H]2C(=O)N[C@@H](CCCNC(=N)N)C(=O)N[C@@H](CCC(=O)O)C(=O)N[C@@H](CCCCN(CC(=O)O)CC(=O)O)C(=O)N[C@@H](CO)C(=O)N[C@@H](CO)C(=O)NCCOCCOCCNC(=O)CCCCCCCCCCCCCCCCC(=O)O)NC(=O)[C@H](Cc2c[nH]c3ccccc23)NC(=O)[C@H](CCCNC(=N)N)NC(=O)[C@@H](Cc2ccccc2)NC(=O)[C@H](Cc2c[nH]cn2)NC1=O [Example 9] (Ac-[Dab]H[dF]RWDPPRE[Lys(CH2CO2H)2]SS-X1; lactam 1-6)
183

Please indicate solubility recorded for CC(=O)N[C@H]1CCCCNC(=O)CC[C@@H](C(=O)N2CCC[C@H]2C(=O)N2CCC[C@H]2C(=O)N[C@@H](Cc2c[nH]cn2)C(=O)N[C@@H](CCC(=O)O)C(=O)N[C@@H](CCCCN(CC(=O)O)CC(=O)O)C(=O)N[C@@H](CCCCNC(=O)COCCOCCNC(=O)CCCCCCCCCCCCCCCC(=O)O)C(N)=O)NC(=O)[C@H](Cc2c[nH]c3ccccc23)NC(=O)[C@H](CCCNC(=N)N)NC(=O)[C@@H](Cc2ccccc2)NC(=O)[C@H](Cc2c[nH]cn2)NC1=O [Example 7] (Ac-KH[dF]RWEPPHE[Lys(CH2CO2H)2]K([AEEA-C17 diacid])-NH2; lactam 1-6)
438
